Biological target: Cytochrome P450 2C9 (Homo sapiens) (UniProt P11712)
Sequence (P11712 whole entry, looked up): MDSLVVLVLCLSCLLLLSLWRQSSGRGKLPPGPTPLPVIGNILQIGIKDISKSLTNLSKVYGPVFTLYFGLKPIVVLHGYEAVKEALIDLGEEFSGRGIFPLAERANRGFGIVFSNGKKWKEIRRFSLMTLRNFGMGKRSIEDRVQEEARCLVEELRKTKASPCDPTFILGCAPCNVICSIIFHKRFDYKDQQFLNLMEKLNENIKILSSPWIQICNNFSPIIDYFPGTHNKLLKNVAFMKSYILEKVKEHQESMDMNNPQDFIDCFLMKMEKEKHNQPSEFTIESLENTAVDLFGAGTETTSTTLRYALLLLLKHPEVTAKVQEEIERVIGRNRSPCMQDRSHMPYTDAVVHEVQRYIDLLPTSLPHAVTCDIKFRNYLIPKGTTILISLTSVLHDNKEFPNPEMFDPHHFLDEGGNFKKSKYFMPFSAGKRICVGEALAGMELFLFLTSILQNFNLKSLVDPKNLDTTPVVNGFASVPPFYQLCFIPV
Assay: Cytochrome panel assay with activity outcomes
Conditions: recombinant CYP, pro-luciferin dealkylation, luminescence, p450-cyp2c9; series mostly up to 57.1 µM
About 4,000 (25%) of roughly 16,000 compounds were called active. Not shown: some 26% with an inconclusive outcome. The call rests on the fitted dose curve; in most records, active means well fitted curve in the direction sought with a large enough effect; inconclusive means small, poorly fitted or top-dose-only effect, or effect the other way; inactive means no such curve, though single readings can be large or run the other way. A selection follows.
Labels: active, inactive

[[record]]
molecule = "O=c1c(-c2ccccc2)c(O)c2cccc3c2n1CCC3"
qualitative_label = "inactive"

[[record]]
molecule = "CC(Cc1ccccc1)C(=O)NCc1ccccn1 (configuration not stated)"
qualitative_label = "inactive"

[[record]]
molecule = "O=C(CN(Cc1ccco1)C(=O)c1cccc(Cl)c1)Nc1c(Cl)cc(Cl)cc1Cl"
qualitative_label = "active"

[[record]]
molecule = "O=C(c1cc(Br)ccc1O)c1cc(Br)ccc1O"
qualitative_label = "active"

[[record]]
molecule = "CC(C)Nc1nc(Oc2ccc(Cl)cc2)cc(C(F)(F)F)n1"
qualitative_label = "active"

[[record]]
molecule = "CC(=O)Nc1ccc2c(c1)OCCOCCOc1cc(NC(C)=O)ccc1OCCOCCOCCO2"
qualitative_label = "inactive"

[[record]]
molecule = "CC(C)Nc1cc(C(F)(F)F)nc(-c2ccccn2)n1"
qualitative_label = "inactive"

[[record]]
molecule = "COC(=O)Cn1nc(-c2ccccc2)n(-c2ccccc2)c1=S"
qualitative_label = "inactive"

[[record]]
molecule = "CC[C@H]1C2=C3C(CC[C@H]4C(OCc5ccc(F)cc5C(F)(F)F)OC[C@](C)([C@@H]34)N(C(=O)OC(C)(C)C)C2)C(COC)C1COC (some centres not stated)"
qualitative_label = "inactive"

[[record]]
molecule = "COc1ccc2nc(N3C(=O)CC(Cc4ccc(Cl)cc4)C3=O)sc2c1 (configuration not stated)"
qualitative_label = "active"

[[record]]
molecule = "Cc1ccccc1OCCNc1ccc(C(F)(F)F)cc1[N+](=O)[O-]"
qualitative_label = "active"

[[record]]
molecule = "O=C(NCc1ccccc1)C(c1ccc(F)cc1)N(Cc1ccco1)C(=O)c1ccccn1 (configuration not stated)"
qualitative_label = "active"

[[record]]
molecule = "Cc1nn(C(C)C(=O)Nc2ccc(Cl)cn2)c(C)c1[N+](=O)[O-] (configuration not stated)"
qualitative_label = "active"

[[record]]
molecule = "CCn1c(-c2ccccc2Cl)nn(CC(=O)Nc2ccc(OC)cc2)c1=S"
qualitative_label = "active"

[[record]]
molecule = "O=C(c1csnn1)N1CCC[C@@]2(CCN(Cc3nccs3)C2)C1"
qualitative_label = "inactive"

[[record]]
molecule = "Cc1ccc(NNS(=O)(=O)c2ccc(C)cc2)cc1"
qualitative_label = "active"

[[record]]
molecule = "CCOc1ccc2[nH]c(=O)c(CN(CCc3ccccc3)C(=O)N3CCCC3)cc2c1"
qualitative_label = "active"

[[record]]
molecule = "CCn1c(CC(C)C)n[nH]c1=S"
qualitative_label = "inactive"

[[record]]
molecule = "CC(=O)Nc1ccc([N+](=O)[O-])cn1"
qualitative_label = "inactive"

[[record]]
molecule = "COc1ccc2nc(N)sc2c1"
qualitative_label = "inactive"

[[record]]
molecule = "CC1=c2c(oc3cc(O)c(Nc4c(C)cc(O)cc4O)c(C)c23)=CC(=O)C1=Nc1c(C)cc(O)cc1O"
qualitative_label = "active"

[[record]]
molecule = "CCOc1cc(CC(=O)N[C@@H](CC(C)C)c2ccccc2N2CCCCC2)ccc1C(=O)O"
qualitative_label = "inactive"

